Tested on: HT-29
ASSAY: Cytotoxicity against human HT-29 cells after 7 days by MTT assay
Format: functional
MEASUREMENT_PARAMETERS: HT-29, 168 h, read-out: ED50 (the source's name)
OBSERVABLE: EC50

# example entries with known answers
Incoming: Supply EC50 value. Item: "CCCCCCCCCCCC[C@@H](O)[C@H]1CC[C@H]([C@H](O)CCCCCC(=O)CCCC[C@@H](O)CC2=C[C@H](C)OC2=O)O1"
Outgoing: > 1 µg/mL

Incoming: Specify reported EC50 for the compound shown: CCCCCCCCC/C=C\CC[C@@H](O)[C@H]1CC[C@H]([C@H](O)CCCCCC(=O)CCCC[C@@H]2CC(CC(C)=O)C(=O)O2)O1 (mixture of isomers)
Outgoing: > 1 µg/mL

Incoming: Please indicate EC50 recorded for CCCCCCCCCCCC[C@H](O)[C@@H]1CC[C@H]([C@H](O)CCCCCC(=O)CCCC[C@@H](O)CC2=C[C@H](C)OC2=O)O1 [MOSIN C]
Outgoing: > 1 µg/mL

Incoming: Quick one: give measured EC50 for COc1cccc2c1C(=O)c1c(O)c3c(c(O)c1C2=O)C[C@@](O)(C(=O)CO)C[C@@H]3O[C@H]1C[C@H](N)[C@H](O)[C@H](C)O1 [DOXORUBICIN]
Outgoing: 0.02 µg/mL

# evaluate next
Incoming: Retrieve EC50 measured for CCCCCCCCCCCC[C@H](O)[C@H]1CC[C@H]([C@H](O)CCCCCC(=O)CCCC[C@@H](O)CC2=C[C@H](C)OC2=O)O1 [MOSIN B] and print it.
Outgoing: > 1 µg/mL

###

System: A498
ASSAY: Cytotoxicity against human A498 cells after 7 days by MTT assay
Assay type: functional
MEASUREMENT_PARAMETERS: A498, 168 h, read-out: ED50 (the source's name)
In this section, each of the compounds is paired with its reported EC50.

Incoming: Write down EC50 measured for item "CCCCCCCCCCCC[C@H](O)[C@@H]1CC[C@H]([C@H](O)CCCCCC(=O)CCCC[C@@H](O)CC2=C[C@H](C)OC2=O)O1"
Outgoing: > 1 µg/mL

Incoming: Identify measured EC50 associated with "CCCCCCCCCCCC[C@H](O)[C@H]1CC[C@H]([C@H](O)CCCCCC(=O)CCCC[C@@H](O)CC2=C[C@H](C)OC2=O)O1"
Outgoing: > 1 µg/mL

Incoming: Let me know recorded EC50 for "CCCCCCCCCCCC[C@@H](O)[C@H]1CC[C@H]([C@H](O)CCCCCC(=O)CCCC[C@@H](O)CC2=C[C@H](C)OC2=O)O1" , thanks.
Outgoing: > 1 µg/mL

Incoming: State its EC50: "COc1cccc2c1C(=O)c1c(O)c3c(c(O)c1C2=O)C[C@@](O)(C(=O)CO)C[C@@H]3O[C@H]1C[C@H](N)[C@H](O)[C@H](C)O1"
Outgoing: 0.01 µg/mL

Now for the compound whose EC50 we want.
Incoming: Recall and state the measured EC50 for CCCCCCCCC/C=C\CC[C@@H](O)[C@H]1CC[C@H]([C@H](O)CCCCCC(=O)CCCC[C@@H]2CC(CC(C)=O)C(=O)O2)O1 (mixture of isomers) .
Outgoing: > 1 µg/mL

###

ASSAY: Toxicity against brine shrimp
Format: organism-based
MEASUREMENT_PARAMETERS: artemia, in vivo
OBSERVABLE: LC50 (µg/mL)
Could you give me the number in µg/mL? Just the number is fine.

Incoming: Give the reported LC50 for this compound. COc1cccc2c1C(=O)c1c(O)c3c(c(O)c1C2=O)C[C@@](O)(C(=O)CO)C[C@@H]3O[C@H]1C[C@H](N)[C@H](O)[C@H](C)O1 [DOXORUBICIN]
Outgoing: 0.26

###

ASSAY: Toxicity against brine shrimp
Format: organism-based
MEASUREMENT_PARAMETERS: artemia, in vivo
Below, each entry is listed alongside its reported LC50.
Dear colleague, please return just the value in µg/mL, with no unit written.

Some solved entries appear below for comparison.
Incoming: Assign LC50 to the following record: "CCCCCCCCCCCC[C@@H](O)[C@H]1CC[C@H]([C@H](O)CCCCCC(=O)CCCC[C@@H](O)CC2=C[C@H](C)OC2=O)O1"
Outgoing: 0.41

Incoming: Indicate the recorded LC50 value for this compound: CCCCCCCCCCCC[C@H](O)[C@@H]1CC[C@H]([C@H](O)CCCCCC(=O)CCCC[C@@H](O)CC2=C[C@H](C)OC2=O)O1 [MOSIN C]
Outgoing: 0.15

Incoming: Return value of LC50 for input CCCCCCCCCCCC[C@H](O)[C@H]1CC[C@H]([C@H](O)CCCCCC(=O)CCCC[C@@H](O)CC2=C[C@H](C)OC2=O)O1 [MOSIN B] , no commentary.
Outgoing: 0.29

Turning now to a further record.
Incoming: Give LC50 for the following compound: CCCCCCCCC/C=C\CC[C@@H](O)[C@H]1CC[C@H]([C@H](O)CCCCCC(=O)CCCC[C@@H]2CC(CC(C)=O)C(=O)O2)O1 (mixture of isomers)
Outgoing: 0.44
